Recorded values, source ChEMBL document CHEMBL4513216.

Listing of entries alongside the reported INHIBITION.
# System: Plasmodium berghei
# Measurement notes: Screen against P. berghei liver stage (PbLuc), transformed with Luciferase, at 2uM
# Assay type: functional, HepG2
# Condition label: tested at 2 uM
Out of some 68,000 compounds screened, about 2,700 (4%) showed an effect of 50% or more. For the sample, strong results were picked, then their nearest neighbours and some compounds at random.
Give the number; % is assumed, so skip it.

These solved cases illustrate the format of a correct answer.
Compound	Assay target	Experimental endpoint	Number
COc1ccc(C2CCCCCN2S(N)(=O)=O)cc1 (stereo unspecified)	Plasmodium berghei	INHIBITION	-16.65
CCN(CC)C(CNC(=O)c1ccc(-n2cncn2)cc1)c1ccsc1 (stereo unspecified)	Plasmodium berghei	INHIBITION	-12.13
Cn1cncc1CN1C[C@@H]2OCCN(c3ncccn3)[C@@H]2C1	Plasmodium berghei	INHIBITION	25.02
Cc1nc(C2CCCN2CC(=O)N2CCc3ccccc32)no1 (stereo unspecified)	Plasmodium berghei	INHIBITION	47.93
Cn1ccnc1CN1C[C@@H]2OCCN(c3ncccn3)[C@@H]2C1	Plasmodium berghei	INHIBITION	52.17

*Q* Form field - read-out: INHIBITION; system: Plasmodium berghei; submitted item: CC1CCN(CCCNC(=O)NC(C)c2nncn2C)CC1 (stereo unspecified)
*A* 6.3

*Q* Next: CCN(CC)C(CNC(=O)c1ccnc(N(C)C)c1)c1ccsc1 (stereo unspecified)
*A* 86.89

*Q* Note, next up: CC1=C(C#N)C(=O)N(C)C(=O)/C1=C\C1=Cc2ccccc2OC1
*A* 53.81

*Q* Thanks! And CCN1C(=O)C(C#N)=C(C)/C(=C/C2=Cc3ccccc3OC2)C1=O ?
*A* 45.67

*Q* Ok, now Cc1c(NC(=O)c2cnc[nH]2)cccc1C(=O)NC(C)(C)C
*A* 5.41

*Q* Also check O=c1c2ccccc2ncn1Cc1cc(C2CC2)[nH]n1
*A* 34.98
